# Test system: CP201
# procedureText: qHTS profiling for inhibitors of Plasmodium falciparum proliferation (AID 504749); also: nearly all actives have a fitted effect of over 60% in size
# conditionNotes: P. falciparum in erythrocytes, SYBR Green DNA, 72 h; series mostly up to 28.7 µM
Results filed as inconclusive are left out. Activity calls are given as the source filed them. Calls follow the shape of the dose curve; as a rule, active = well fitted inhibition curve with a large enough effect; inconclusive = small, poorly fitted or top-dose-only effect; inactive = flat fitted curve, though single readings scatter.
Could you please pick one outcome from this set? 1 = active, -1 = inactive

Req: Lab log entry: CCN(CC)CCOCCOC(=O)C1(c2ccccc2)CCCC1 — outcome as called in the assay?
Resp: -1

Req: Lab log entry: CCOC(=O)c1cnc2c(cnn2CC)c1NN=C(C)C — outcome as called in the assay?
Resp: -1

Req: Lab log entry: NC1=NCC2c3ccccc3Cc3ccccc3N12 (configuration not stated) — outcome as called in the assay?
Resp: -1

Req: Lab log entry: CC(C)(Oc1ccc(CCNC(=O)c2ccc(Cl)cc2)cc1)C(=O)O — outcome as called in the assay?
Resp: -1

Req: Lab log entry: CC(N=C(NC#N)Nc1ccncc1)C(C)(C)C (configuration not stated) — outcome as called in the assay?
Resp: -1

Req: Lab log entry: C[N+](C)(C)CCOC(=O)CCC(=O)OCC[N+](C)(C)C — outcome as called in the assay?
Resp: -1

Req: Lab log entry: CCNC(=O)N1CCN(CCCC(c2ccc(F)cc2)c2ccc(F)cc2)CC1 — outcome as called in the assay?
Resp: 1

Req: Lab log entry: Cc1ccc(Cl)c(Nc2ccccc2C(=O)O)c1Cl — outcome as called in the assay?
Resp: -1

Req: Lab log entry: CC(C)NNC(=O)c1ccncc1 — outcome as called in the assay?
Resp: -1

Req: Lab log entry: C[N+](C)(C)CCOC(N)=O — outcome as called in the assay?
Resp: -1

Req: Lab log entry: CC(=O)OCC1=C(C(=O)O)N2C(=O)[C@@H](NC(=O)Cc3cccs3)[C@H]2SC1 — outcome as called in the assay?
Resp: -1

Req: Lab log entry: C[N+](C)(C)CCCCCCCCCC[N+](C)(C)C — outcome as called in the assay?
Resp: 1

====

# System: 7G8
# procedureText: qHTS profiling for inhibitors of Plasmodium falciparum proliferation (AID 504749); also: nearly all actives have a fitted effect of over 60% in size
# conditionNotes: P. falciparum in erythrocytes, SYBR Green DNA, 72 h; series mostly up to 28.7 µM
Inconclusive results are not listed. Calls of active or inactive are those of the source. Calls follow the shape of the dose curve; as a rule, active = well fitted inhibition curve with a large enough effect; inconclusive = small, poorly fitted or top-dose-only effect; inactive = flat fitted curve, though single readings scatter.
Could you please pick one outcome from this set? active, inactive

Req: Lab log entry: CC(C)(C)c1ccc(C(=O)CCCN2CCC(OC(c3ccccc3)c3ccccc3)CC2)cc1 — outcome as called in the assay?
Resp: active

Req: Lab log entry: O=C(O)CN(CCN(CC(=O)O)CC(=O)O)CCN(CC(=O)O)CC(=O)O — outcome as called in the assay?
Resp: inactive

Req: Lab log entry: CCO/C([O-])=N/c1c[n+](N2CCOCC2)no1 — outcome as called in the assay?
Resp: inactive

Req: Lab log entry: Fc1ccc(C(c2ccc(F)cc2)N2CCN(C/C=C/c3ccccc3)CC2)cc1 — outcome as called in the assay?
Resp: active

Req: Lab log entry: CN(C(=O)CCCOc1ccc2[nH]c(=O)ccc2c1)C1CCCCC1 — outcome as called in the assay?
Resp: active

Req: Lab log entry: Cc1nnc(SCC2=C(C(=O)O)N3C(=O)[C@@H](NC(=O)Cn4cnnn4)[C@H]3SC2)s1 — outcome as called in the assay?
Resp: inactive

Req: Lab log entry: COc1ccc(CN(CCN(C)C)c2ccccn2)cc1 — outcome as called in the assay?
Resp: inactive

Req: Lab log entry: FC(F)(F)c1ccccc1-n1ccnc1 — outcome as called in the assay?
Resp: inactive

Req: Lab log entry: CCN(CC)CCNC(=O)c1ccc(NC(C)=O)cc1 — outcome as called in the assay?
Resp: inactive

Req: Lab log entry: O=C(O)CCCCCCCC(=O)O — outcome as called in the assay?
Resp: inactive
